- System: NCI-H522 lung
- protocol.notes: NCI-60 one-dose screen, 48 h (100 = growth as untreated, 0 = no growth, -100 = all killed)
- test.parameters: 10 µM unless noted
This is part of a sample that, as a whole, favours compounds with a hit. Of some 83,000 tested, about 20% had one in any assay. Active and inactive are the calls of the source. The calls were made as follows: active = growth percent below 10; inactive = the rest.
parameter.measured: growth

These solved cases illustrate the format of a correct answer.
compound	growth
O=C(O)Cc1ccc(Cl)cc1	101% (inactive)
O=C(N/N=C\c1ccc(Cl)cc1Cl)c1ccncc1	84.8% (inactive)
CCOC(=O)C1(N)CCCCC1	96.8% (inactive)
CCOC(=O)C(=O)CC(=O)c1ccccc1	98.8% (inactive)
C=CCc1cc(OC)c(OC)c(OC)c1	101% (inactive)
Cc1ccc(O)c(N)c1	70.6% (inactive)
CN=S(=O)(OCCCCCOS(=O)(=NC)c1ccc(C)cc1)c1ccc(C)cc1 (stereo not drawn)	116% (inactive)
Cc1ccc(S(=O)(=O)Oc2ccc3sc4c(CO)ccc(NCCN(C)C)c4c(=O)c3c2)cc1	-74.4% [100 µM] (active)

*Q* For NCI-H522 lung, provide growth of CCCc1cccc(CCC)c1NC(=O)Nc1cc(Cl)cc(Cl)c1 please.
*A* 85.7% (inactive)

*Q* Another compound: COc1ccc(-c2csc(NC(=O)Nc3nc(-c4ccc(OC)cc4)cs3)n2)cc1
*A* 92.5% (inactive)

*Q* Another compound: CN1CCN(C(=S)S)CC1
*A* 94.5% (inactive)

----------
- Tested on: HOP-62 NSCLC
- protocol.notes: NCI-60 one-dose screen, 48 h
- test.parameters: 10 µM unless noted
- Method: Growth inhibition of the HOP-62 human Non-Small Cell Lung tumor cell line is measured as a screen for anti-cancer activity. Cells are grown in 96 well plates and exposed to the test compound for 48 hours. Compounds are tested at a single concentration, which is 10^-5 M for most compounds. The reported endpoint is percent growth (GI% or GIPRCNT), where numbers from 0 - 100% represent growth inhibition, and numbers from -100% - 0 represent cell death. […]
Compounds without any hit were thinned out: in the full panel of roughly 83,000, 20% have a hit. Activity calls are given as the source filed them. How the source made its calls: active means growth percent below 10; inactive means the rest.
Valid outcomes are listed here; reply with one: YES (active), NO (inactive)

compound	group
CCOC(=O)c1ccc(C(C)(C)C)cc1	NO

*Q* Could you please tell me the result logged for CCOc1ccccc1NC(=O)CCl in this assay?
*A* NO

*Q* Another compound: N#CC1(O)CCCCC1
*A* NO

*Q* Another compound: CC1CC2C3CCC4=CC(=O)CCC4(C)C3CCC2(C)C1(O)C(=O)CO (stereo unspecified)
*A* NO

*Q* Another compound: O=C(c1cccc(C(=O)c2ccc3c4c(cccc24)C(=O)N(c2ccccc2)C3=O)c1)c1ccc2c3c(cccc13)C(=O)N(c1ccccc1)C2=O
*A* NO

*Q* Another compound: NC(CCl)=NCC12CC3CC(CC(C3)C1)C2
*A* YES

----------
Each item that follows carries a reported growth.
- System: MCF7 breast
- protocol.notes: NCI-60 one-dose screen, 48 h (100 = growth as untreated, 0 = no growth, -100 = all killed)
- test.parameters: 10 µM unless noted
This is part of a sample that, as a whole, favours compounds with a hit. Of some 83,000 tested, about 20% had one in any assay.
Numeric answer only, unit % assumed.

These solved cases illustrate the format of a correct answer.
molecule	measurement.unit	growth
CN(C)c1ncnc2c1cnn2C	%	94
Clc1ncnc2nc[nH]c12	%	94.9

*Q* Find the recorded growth belonging to C1=NCCc2ccccc21 and report it.
*A* 90.3

*Q* Another molecule: Nc1ccc(F)cc1F
*A* 96

*Q* Another molecule: CC(C)C1CCC(C)C(O)C1 (centres undefined)
*A* 100

*Q* Another molecule: Cc1ccc(NC(=S)N2CCOCC2)cc1C
*A* 104

*Q* Another molecule: C=C1CC2(OC1=O)C(=O)N(C)c1ccc(I)cc12 (centres undefined)
*A* -66.8

*Q* Another molecule: O=C(NC(=S)N1CC=CCC1)c1ccccc1
*A* 101

*Q* Another molecule: COc1ccc(NNS(=O)(=O)O)cc1
*A* 92.9

*Q* Another molecule: CCN(CC)CCN1CNC(=S)NC1
*A* 98.4

*Q* Another molecule: CCOC(=O)C(COS(C)(=O)=O)(COS(C)(=O)=O)C(=O)OCC
*A* 98.7

----------
- Tested on: CAKI-1 renal
- protocol.notes: NCI-60 one-dose screen, 48 h (100 = growth as untreated, 0 = no growth, -100 = all killed)
- test.parameters: 10 µM unless noted
The panel holds about 83,000 compounds, 20% with a hit somewhere; the sample as a whole holds those more often.
parameter.measured: growth (%)
Numeric answer only, unit % assumed.

*Q* For CAKI-1 renal, provide growth of Nc1nc2nnc(-c3ccccc3)c(-c3ccccc3)n2n1 please.
*A* 96.2

*Q* Another compound: O=C(c1ccccc1O)N1CCCC1
*A* 94.8

*Q* Another compound: CC1(C)OC(=O)CC1=O
*A* 90.4

*Q* Another compound: CN1C(=O)NC(c2ccc(Cl)cc2)(c2ccc(Cl)cc2)C1=O
*A* 92.9

*Q* Another compound: NC(=O)N1CCOCC1
*A* 115

*Q* Another compound: Clc1ncnc2nc[nH]c12
*A* 108

----------
- System: CAKI-1 renal
- protocol.notes: NCI-60 one-dose screen, 48 h
- test.parameters: 10 µM unless noted
The panel holds about 83,000 compounds, 20% with a hit somewhere; the sample as a whole holds those more often. Active and inactive are the calls of the source. Rule for the calls: active = growth percent below 10; inactive = the rest.
Valid outcomes are listed here; reply with one: T (active), F (inactive)

Consider the following illustrative entries.
molecule	group
C/C(=N\Nc1ccc([N+](=O)[O-])cc1[N+](=O)[O-])c1ccc(Br)cc1	F
CC(C)(C)NCCC(O)c1cc(C(F)(F)F)nc2c(C(F)(F)F)cccc12 (stereo unspecified)	F
O=C(O)c1ccccc1Cc1ccc2c(c1)CCCC2	F
O=C(NCCc1ccccc1)/C(=C\c1ccc(Cl)cc1Cl)NC(=O)c1ccccc1	F
Cc1cccc2ccccc12	F

*Q* Could you please tell me the result logged for CCOC(=O)C(COS(C)(=O)=O)(COS(C)(=O)=O)C(=O)OCC in this assay?
*A* F

*Q* Another molecule: O=C1Nc2ccccc2/C1=C\c1ccccc1O
*A* F

*Q* Another molecule: CC(=O)OC(C)c1cccc(C#N)c1 (stereo unspecified)
*A* F

*Q* Another molecule: c1ccc2c(NCCCN3CCN(CCCNc4c5ccccc5nc5ccccc45)CC3)c3ccccc3nc2c1
*A* T

*Q* Another molecule: C[C@H](CCC[C@H](C)OS(=O)(=O)c1ccccc1)OS(=O)(=O)c1ccccc1
*A* F

*Q* Another molecule: Nc1cccc2cccc(O)c12
*A* F

----------
- Tested on: OVCAR-8 ovarian
- protocol.notes: NCI-60 one-dose screen, 48 h
- test.parameters: 10 µM unless noted
Compounds without any hit were thinned out: in the full panel of roughly 83,000, 20% have a hit. Calls of active or inactive are those of the source. The calls were made as follows: active = growth percent below 10; inactive = the rest.
Valid outcomes are listed here; reply with one: Y (active), N (inactive)

Consider the following illustrative entries.
compound	assay.target	group
CC1(C)OC(=O)CC1=O	OVCAR-8 ovarian	N
CC(C)C(=O)OCCOc1ccc(C(C)(C)C)cc1	OVCAR-8 ovarian	N
COCC(N)=O	OVCAR-8 ovarian	N
CCCCCC/C=C\CCCCCCCCCc1cc(O)cc(OC)c1O	OVCAR-8 ovarian	Y
CC(C)N(C(=O)c1ccccc1)C(C)C	OVCAR-8 ovarian	N

Could you now consider this next compound?
*Q* Could you please tell me the result logged for Cc1cccc2ccccc12 in this assay?
*A* N

----------
- System: HCT-116 colon
- protocol.notes: NCI-60 one-dose screen, 48 h
- test.parameters: 10 µM unless noted
This is part of a sample that, as a whole, favours compounds with a hit. Of some 83,000 tested, about 20% had one in any assay. Active and inactive are the calls of the source. The calls were made as follows: active = growth percent below 10; inactive = the rest.
Valid outcomes are listed here; reply with one: class 1 (active), class 0 (inactive)

Consider the following illustrative entries.
compound	group
S=C(Sc1ccc(Cl)cc1)Sc1ccc(Cl)cc1	class 1
C[n+]1c(/C=C\C=C\N2CCCCC2)sc2ccccc21	class 1
Nc1nc(Cl)cc(Cl)n1	class 0
COC1OC(COC(C)=O)C(OC(C)=O)C(OC(C)=O)C1OC(C)=O (stereo not given)	class 0
Cc1c(Cl)cccc1NC(=S)NC(=O)c1ccccc1	class 0

*Q* Could you please tell me the result logged for CC1(C)C2CCC1(C)C1(C2)OCCS1 (stereo not given) in this assay?
*A* class 0

*Q* Another compound: Cc1cc(C(=O)NN)c(C#N)c(=O)[nH]1
*A* class 0

*Q* Another compound: CC(C)NC(=O)OCc1c(COC(=O)NC(C)C)c(-c2ccc(Cl)cc2)n2c1CCC2
*A* class 0

*Q* Another compound: CCC(=O)Oc1ccc2ccccc2c1
*A* class 0

*Q* Another compound: O=C(NCc1ccco1)Nc1cccc2c(NC(=O)NCc3ccco3)cccc12
*A* class 0

*Q* Another compound: CCOC(=O)c1c[nH][nH]c1=O
*A* class 0

*Q* Another compound: CCCc1cccc(CCC)c1NC(=O)Nc1cc(Cl)cc(Cl)c1
*A* class 0

*Q* Another compound: O=[n+]1ccn([O-])c2ccccc21
*A* class 0

*Q* Another compound: C=CC(C)C(C)(C)O (stereo not given)
*A* class 0

*Q* Another compound: S=c1nc(-c2ccccn2)c(-c2ccccn2)n[nH]1
*A* class 0

*Q* Another compound: Oc1ccc(N=Cc2ccc(OCc3ccccc3)cc2)cc1
*A* class 0

*Q* Another compound: Nc1ncnc(Nc2ccccc2)n1
*A* class 0

*Q* Another compound: CC(O)C(F)(F)C(F)(F)C(F)(F)F (stereo not given)
*A* class 0
